Ref: PubChem BioAssay (EPA / NIEHS)

molecular target: Nuclear receptor subfamily 1 group I member 2 (Homo sapiens) (UniProt O75469); test: ATG_PXR_TRANS: Attagene TRANS-FACTORIAL HepG2 Assay for human Pregnane X Receptor (PXR) (AID 2283008)
Sequence (O75469 whole entry, looked up): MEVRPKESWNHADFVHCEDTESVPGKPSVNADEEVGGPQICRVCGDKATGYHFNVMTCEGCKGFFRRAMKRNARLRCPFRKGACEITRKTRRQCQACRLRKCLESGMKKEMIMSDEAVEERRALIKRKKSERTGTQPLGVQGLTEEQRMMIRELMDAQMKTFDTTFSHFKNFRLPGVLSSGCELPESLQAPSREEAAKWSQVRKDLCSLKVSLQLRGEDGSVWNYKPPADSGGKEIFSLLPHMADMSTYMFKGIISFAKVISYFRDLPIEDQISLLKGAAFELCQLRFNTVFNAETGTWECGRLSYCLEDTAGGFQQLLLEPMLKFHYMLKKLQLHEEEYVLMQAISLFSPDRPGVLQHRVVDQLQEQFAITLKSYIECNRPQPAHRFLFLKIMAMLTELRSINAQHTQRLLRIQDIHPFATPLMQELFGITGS
Records with an inconclusive call do not appear. Active and inactive are the calls of the source. Rule for the calls: active = hit-call score of the fitted dose curve at least 0.9, where 1 is the maximum; inconclusive = response in the unintended direction; inactive = score below 0.9.
Response enum: active, inactive

Please let me know the test result on file for `CCOP(=S)(OCC)SCCSCC` . inactive

Input `CC(=NC#N)N(C)Cc1ccc(Cl)nc1` inactive

Next entry: `CC1=NNC(=O)N(/N=C/c2cccnc2)C1` inactive

Next compound up: `CC1(C(=O)Nc2ccc(O)c(Cl)c2Cl)CCCCC1` active

Can you check `C[N+]1(C)CCCCC1` next? inactive

How about this compound: CC(Oc1cccc(Cl)c1)C(=O)O (stereo not given) inactive

Here is the next compound: `C[Si](Cn1cncn1)(c1ccc(F)cc1)c1ccc(F)cc1` inactive

What do you have for `CCOP(=S)(OCC)Oc1ccc2c(C)c(Cl)c(=O)oc2c1` ? active

Same lookup for `Nc1nc(N)nc(NC2CC2)n1` , please. inactive

Next record, please: `CCC(CC)Nc1c([N+](=O)[O-])cc(C)c(C)c1[N+](=O)[O-]` active

Next: CCc1cccc(C)c1N(C(=O)CCl)C(C)COC (stereo not given) inactive

What about `CCOC(=O)COc1cc(-c2nn(C)c(OC(F)F)c2Cl)c(F)cc1Cl` ? active

Same thing, different compound: `CN(C)[C@@H]1C(=O)C(C(N)=O)=C(O)[C@@]2(O)C(=O)C3=C(O)c4c(O)cccc4[C@@](C)(O)[C@H]3[C@H](O)[C@@H]12` inactive

Also CCOP(=O)(NC(C)C)Oc1ccc(SC)c(C)c1 (stereo not given) ? inactive

Moving on to `CC(C)N(C(=O)SCC(Cl)=C(Cl)Cl)C(C)C` inactive
